Biological target: GST-RIPK1 (recombinant GST-RIPK1 kinase domain (residues 1-327)) (Homo sapiens)
Construct: recombinant GST-RIPK1 kinase domain (residues 1-327) enzyme
Experiment: RIPK1-ADP-Glo enzymatic assay
Details: 25 nM GST-RIPK1, 300 μM ATP, 3 μM dephosphorylated-MBP; 30 minutes pre-incubation, 150 minutes reaction; ten-point titration
Endpoint: IC50 (nM)
Give bare numbers, in nM.

Reference set, count: 3
INSERT INTO measurements (mol_smiles, display_unit, value_reported) VALUES
  ('CCC(C)(C)C(=O)N1C[C@@H]2C[C@H]1c1cncc(C#N)c1O2', 'nM', 13),
  ('Cn1cncc1C#Cc1cncc2c1O[C@H]1C[C@@H]2N(C(=O)C23CCC(C(F)(F)F)(CC2)C3)C1', 'nM', 26),
  ('N#Cc1cncc2c1O[C@H]1C[C@@H]2N(C(=O)C2(F)CCN(c3cc(-c4ccccc4)ncn3)CC2)C1', 'nM', 35);

Report IC50 for each item below.
1. O=C(N1C[C@@H]2C[C@H]1c1cncc(C#Cc3ccncc3)c1O2)C12CCC(C(F)(F)F)(CC1)C2
2. CC1(CC#Cc2cncc3c2O[C@H]2C[C@@H]3N(C(=O)C34CCC(F)(CC3)C4)C2)COC1
3. COc1ccc2cc(C#Cc3cncc4c3O[C@H]3C[C@@H]4N(C(=O)C(C)(C)C)C3)ccc2c1

[30, 376, 25]

---

Target: GST-RIPK1 (recombinant GST-RIPK1 kinase domain (residues 1-327)) (Homo sapiens, UniProt Q13546)
Construct: recombinant GST-RIPK1 kinase domain (residues 1-327) enzyme
Sequence (Q13546 1-327): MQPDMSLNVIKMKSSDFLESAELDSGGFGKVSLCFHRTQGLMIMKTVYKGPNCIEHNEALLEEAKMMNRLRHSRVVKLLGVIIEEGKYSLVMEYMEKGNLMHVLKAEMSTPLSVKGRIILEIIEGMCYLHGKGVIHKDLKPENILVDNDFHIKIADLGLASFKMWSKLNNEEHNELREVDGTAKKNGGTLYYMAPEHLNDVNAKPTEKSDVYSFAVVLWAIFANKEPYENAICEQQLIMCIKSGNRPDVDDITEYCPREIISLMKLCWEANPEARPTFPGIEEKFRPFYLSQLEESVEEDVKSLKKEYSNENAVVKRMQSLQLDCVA
Test: RIPK1-ADP-Glo enzymatic assay
Details: 25 nM GST-RIPK1, 300 μM ATP, 3 μM dephosphorylated-MBP; 30 minutes pre-incubation, 150 minutes reaction; ten-point titration
What pIC50 was measured for each of the following?
Answers are plain numbers, as −log10 of the molar value.

INSERT INTO results (molecule, endpoint, value_reported) VALUES
  ('C[C@]1(C(=O)N2C[C@@H]3C[C@H]2c2cncc(C#N)c2S3)C[C@H](C#N)C1', 'pIC50', 6.93);

Report pIC50 for each item below.
1. CC12COC(C(=O)N3C[C@@H]4C[C@H]3c3cncc(C#N)c3O4)(C1)C2
2. O=C(N1C[C@@H]2C[C@H]1c1cncc(C#Cc3ccc(F)cc3)c1O2)C12CCC(F)(CC1)C2
3. CC(C)(C(=O)N1C[C@@H]2C[C@H]1c1cncc(C#Cc3cnccn3)c1O2)C(F)F
4. CC(F)(F)C(C)(C)C(=O)N1C[C@@H]2C[C@H]1c1cncc(F)c1O2
5. N#Cc1cncc2c1O[C@H]1C[C@@H]2N(C(=O)C23CCCC2C3(F)F)C1 (stereo partly shown) [Compound 1-81]
6. N#Cc1cncc2c1O[C@H]1C[C@@H]2N(C(=O)C2(C(F)(F)F)CCCC2)C1
7. CC(C)(C(=O)N1C[C@@H]2C[C@H]1c1cncc(C#Cc3ccc4nccnc4c3)c1O2)C(F)F
8. N#CC12CCC(C(=O)N3C[C@@H]4C[C@H]3c3cncc(F)c3O4)(C1)C2

1. 6.30
2. 7.62
3. 7.08
4. 7.17
5. 7.03
6. 6.89
7. 7.82
8. 6.95

Report pIC50 for each item below.
1. CC(F)(F)C(C)(C)C(=O)N1C[C@@H]2C[C@H]1c1cncnc1O2
2. O=C(N1C[C@@H]2C[C@H]1c1cncc(C#CCn3ccnc3)c1O2)C12CCC(C(F)(F)F)(CC1)C2
3. N#Cc1cncc2c1O[C@H]1C[C@@H]2N(C(=O)C23CCC(C#N)(C2)C3)C1
4. Cc1ncccc1C#Cc1cncc2c1O[C@H]1C[C@@H]2N(C(=O)C(C)(C)C(F)F)C1
5. COC1(C(=O)N2C[C@@H]3C[C@H]2c2cncc(C#N)c2O3)CCCC1

5.92
7.64
7.55
7.18
7.12

Report pIC50 for each item below.
1. O=C(N1C[C@@H]2C[C@H]1c1cncc(C#Cc3cscn3)c1O2)C12CCC(C(F)(F)F)(CC1)C2
2. COc1ncc(C#Cc2cncc3c2O[C@H]2C[C@@H]3N(C(=O)C(C)(C)C(F)F)C2)c(OC)n1

1. 7.74
2. 7.31
